These entries and their values trace back to PubChem BioAssay AID463173.

survival overview
Test system: Wild type
Assay: growth inhibition of S. aureus wild type versus tarO mutant, primary screen, teichoic acid synthesis inhibitors, RN4220, OD600 (AID 463173)
Conditions: S. aureus RN4220 wild type/DeltatarO growth, OD600, 18 h, active compounds read low, concentration not given here
Screen size: about 52,000 compounds; about 1,700 (3.3%) were called active. What follows is part of a selection rich in actives, with near analogues and random picks from the rest.

Sample answers from the record:
N#Cc1cccc(NC(=O)CSc2nc3c(cc2C#N)N2CCC3CC2)c1    76% (inactive)
O=C(COc1ccccc1)N1CCN(Cc2ccc(Br)cc2)CC1    100% (inactive)
CN1CCc2c(C#N)c(Cl)nc(NCc3ccccc3)c2C1    103% (inactive)
Cc1cccc(Cn2cccc(C(=O)Nc3nnc(C)s3)c2=O)c1    71% (inactive)
Cc1ccc(CN2C(=O)c3ccccc3Sc3ccc(C(=O)N4CCC5(CC4)OCCO5)cc32)cc1    75% (inactive)
Cc1ccc(C)c(CN2C(=O)c3ccccc3Sc3ccc(C(=O)N4CCC5(CC4)OCCO5)cc32)c1    14% (active)
O=C1NC(=O)N(Cc2ccco2)C(=O)/C1=C\c1ccco1    111% (inactive)
Nc1c2c(nc3sc4c(c13)CCCC4)CCCC2    118% (inactive)

Request: Fill in: survival of N#Cc1cc2c(nc1SCC(=O)Nc1ccc(C(F)(F)F)cc1)C1CCN2CC1 is ___
Result: 0% (active)

Request: Fill in: survival of Cc1oc(-c2ccc(Cl)cc2)nc1CN1C(=O)CN=C(c2ccccc2)c2ccccc21 is ___
Result: 80% (inactive)

Request: Fill in: survival of Cc1cccc(CN2CCN(C(=O)COc3ccccc3)CC2)c1 is ___
Result: 108% (inactive)

----------
Tested on: Wild type
Assay: growth inhibition of S. aureus wild type versus tarO mutant, primary screen, teichoic acid synthesis inhibitors, RN4220, OD600 (AID 463173)
Conditions: S. aureus RN4220 wild type/DeltatarO growth, OD600, 18 h, concentration not given here
Hit rate of the full screen: of about 52,000 compounds, about 1,700 (3.3%) were called active. Rule as the data show it: active = survival mostly below about 52% (no sharp cut-off); inactive = mostly above about 56%. What follows is part of a selection rich in actives, with near analogues and random picks from the rest.
Lab note: assign the record to one of active, inactive

Examples with answers:
O=S1(=O)N(Cc2ccccc2)CCCN1Cc1ccc(F)cc1Cl    inactive
CCOc1nc(NCc2ccco2)nc(N2CC3CC(C2)c2cccc(=O)n2C3)n1 (stereo not drawn)    inactive
CCOC(=O)c1ccc(NC(=O)c2sc3nc4c(cc3c2N)N2CCC4CC2)cc1    inactive

Request: Dear all, I need the recorded test outcome for CCOc1ccc2nc(NC(=O)c3cccn(Cc4ccc(C)cc4)c3=O)sc2c1 , thank you.
Result: inactive

Request: Dear all, I need the recorded test outcome for CCCCn1c(=O)c(C(=O)NC)c(O)c2ccccc21 , thank you.
Result: inactive

Request: Dear all, I need the recorded test outcome for CCc1ccc(OCC(=O)N2CCN(CCc3ccccn3)CC2)cc1 , thank you.
Result: inactive

Request: Dear all, I need the recorded test outcome for COC(=O)C1=C(C)OC(N)=C(C#N)C12C(=O)Nc1ccc(C)cc12 (stereo not drawn) , thank you.
Result: inactive

Request: Dear all, I need the recorded test outcome for O=c1[nH]c2ccccc2c(=O)n1-c1ccc(Cl)c(Cl)c1 , thank you.
Result: inactive

----------
Tested on: Wild type
Experiment: growth inhibition of S. aureus wild type versus tarO mutant, primary screen, teichoic acid synthesis inhibitors, RN4220, OD600 (AID 463173)
Settings: S. aureus RN4220 wild type/DeltatarO growth, OD600, 18 h, active compounds read low, concentration not given here
The whole screen tested about 52,000 compounds, of which about 1,700 (3.3%) were called active. Many of the other results were omitted from the sample, so actives are more common in it than they were.
quantity-measured: survival (%)
Give your result in % as a bare value.

Request: Fill in: survival of O=c1c2ccccc2nc(/C=C\c2ccccc2F)n1-c1ccc(O)cc1 is ___
Result: 73

Request: Fill in: survival of Cn1cc(C=C(C#N)C#N)c2ccccc21 is ___
Result: 114

Request: Fill in: survival of COc1ccc(-c2nc(CN3C(=O)CN=C(c4ccccc4)c4ccccc43)c(C)o2)cc1OC is ___
Result: 96

Request: Fill in: survival of O=c1c2ccccc2nc(/C=C\c2ccc(F)cc2)n1-c1ccccc1F is ___
Result: 71

Request: Fill in: survival of CC(C)(C)c1ccc(OCC(=O)Nc2ccc(Cl)cc2C(=O)c2ccccc2)cc1 is ___
Result: 63

Request: Fill in: survival of COc1cc(OC)cc(C(=O)Nc2ccc(Cl)cc2C(=O)c2ccccc2Cl)c1 is ___
Result: 139

Request: Fill in: survival of Cc1ccccc1-n1c(/C=C/c2ccccc2F)nc2ccccc2c1=O is ___
Result: 7

Request: Fill in: survival of Cc1ccccc1-n1c(/C=C/c2ccc(N(C)C)cc2)nc2ccccc2c1=O is ___
Result: 7

Request: Fill in: survival of O=C(Nc1ccc2c(c1)OCO2)c1cccn(Cc2ccc(F)cc2)c1=O is ___
Result: 59

Request: Fill in: survival of O=C(Nc1ccc(Br)cc1C(=O)c1ccccc1Cl)c1ccc(Br)cc1 is ___
Result: 136

Request: Fill in: survival of Cc1ccc(-n2c(/C=C\c3ccc(F)c(F)c3)nc3ccccc3c2=O)c(C)c1 is ___
Result: 68

Request: Fill in: survival of COc1ccc(C(=O)Nc2ccc(Cl)cc2C(=O)c2ccccc2)c(OC)c1 is ___
Result: -2

Request: Fill in: survival of Cc1cc(NC(=O)c2cccn(Cc3cccc(Cl)c3)c2=O)no1 is ___
Result: 72

Request: Fill in: survival of O=C(Nc1ccc(Cl)cc1C(=O)c1ccccc1)c1ccccc1Br is ___
Result: 5

Request: Fill in: survival of COc1ccc(-c2nc(CN3C(=O)CN=C(c4ccccc4)c4ccccc43)c(C)o2)cc1 is ___
Result: 93

Request: Fill in: survival of O=C(Nc1ccc(Cl)cc1C(=O)c1ccccc1)c1cc(Cl)cc(Cl)c1 is ___
Result: 140

Request: Fill in: survival of CC(C)(C)c1ccc(C(=O)Nc2ccc(Cl)cc2C(=O)c2ccccc2)cc1 is ___
Result: 3

Request: Fill in: survival of Cc1cccc(-n2c(/C=C/c3ccccc3O)nc3ccccc3c2=O)c1 is ___
Result: 12

Request: Fill in: survival of Cc1ccccc1-n1c(/C=C/c2c(C)[nH]c3ccccc23)nc2ccccc2c1=O is ___
Result: 6

Request: Fill in: survival of O=C1CN=C(c2ccccc2Cl)c2cc(Cl)ccc2N1Cc1cccc(Cl)c1 is ___
Result: 128

Request: Fill in: survival of CCCC1(CCC)C(=O)NC(=Nc2ccccc2)NC1=O is ___
Result: 107

Request: Fill in: survival of COc1ccc(CN2CCNCC2)cc1 is ___
Result: 98

Request: Fill in: survival of O=C(Nc1ccc(Br)cc1C(=O)c1ccccc1)c1ccccc1 is ___
Result: -1

Request: Fill in: survival of O=c1c2ccccc2nc(/C=C/c2ccccc2F)n1-c1cccc(O)c1 is ___
Result: 11

----------
System: Wild type
Experiment: growth inhibition of S. aureus wild type versus tarO mutant, primary screen, teichoic acid synthesis inhibitors, RN4220, OD600 (AID 463173)
Conditions: S. aureus RN4220 wild type/DeltatarO growth, OD600, 18 h, concentration not given here
The campaign covered roughly 52,000 compounds. About 1,700 (3.3%) were called active. No stated cut-off is given here; in the data, active means survival mostly below about 52% (no sharp cut-off); inactive means mostly above about 56%. This excerpt belongs to a sample that is enriched for actives.
Lab note: assign the record to one of label 1 = active, label 0 = inactive

O=C(Nc1ccc2c(c1)OCO2)c1cccn(Cc2cccc([N+](=O)[O-])c2)c1=O    label 0

Request: Dear all, I need the recorded test outcome for CCCOc1ccc(CCN)cc1Cl , thank you.
Result: label 0

Request: Dear all, I need the recorded test outcome for COc1ccccc1-n1c(/C=C/c2ccccc2)nc2ccccc2c1=O , thank you.
Result: label 0

Request: Dear all, I need the recorded test outcome for Nc1c(C(=O)Nc2cccc(Br)c2)sc2nc3c(cc12)N1CCC3CC1 , thank you.
Result: label 0

Request: Dear all, I need the recorded test outcome for N#Cc1cc2c(nc1SCC(=O)Nc1ccc(Cl)c(C(F)(F)F)c1)C1CCN2CC1 , thank you.
Result: label 1

Request: Dear all, I need the recorded test outcome for CSc1nc2ccccc2c(=O)n1-c1ccccc1C , thank you.
Result: label 0

Request: Dear all, I need the recorded test outcome for N#Cc1cc2c(nc1SCC(=O)Nc1ccc(F)c(Cl)c1)C1CCN2CC1 , thank you.
Result: label 1

Request: Dear all, I need the recorded test outcome for N#Cc1cc2c(nc1SCC(=O)Nc1cccc(C(F)(F)F)c1)C1CCN2CC1 , thank you.
Result: label 1

Request: Dear all, I need the recorded test outcome for CC(=O)c1ccc(NC(=O)c2sc3nc4c(cc3c2N)N2CCC4CC2)cc1 , thank you.
Result: label 0

Request: Dear all, I need the recorded test outcome for Nc1c(C(=O)Nc2ccc(OC(F)(F)F)cc2)sc2nc3c(cc12)N1CCC3CC1 , thank you.
Result: label 0

Request: Dear all, I need the recorded test outcome for CCOC(=O)c1ccc(NC(=O)CSc2nc3c(cc2C#N)N2CCC3CC2)cc1 , thank you.
Result: label 0
